target: T1, human MHC class II DR protein (DRA*0101/DRB1*0401), purified from PRIESS cells (human, UniProt P01903 26-254; P01911 30-266, limits assumed); experiment: SPR (BIAcore), MHCII on CM5 chip
T1 construct: mature; also called HLA-DR protein; MHCII
T1 MHC II alpha: not shown
T1 MHC II beta: not shown
endpoint-name: koff

In plain terms, MS-GPC-8-6-2 Fab (Fab, V domains shown, Fab: VH-CH1 with FLAG tag and STREP tag II, VL-CL; VH residue 1 is Q in Fab) VH: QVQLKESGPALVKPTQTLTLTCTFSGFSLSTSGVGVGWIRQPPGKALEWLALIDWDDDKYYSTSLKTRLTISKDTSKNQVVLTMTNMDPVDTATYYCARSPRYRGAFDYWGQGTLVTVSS VL: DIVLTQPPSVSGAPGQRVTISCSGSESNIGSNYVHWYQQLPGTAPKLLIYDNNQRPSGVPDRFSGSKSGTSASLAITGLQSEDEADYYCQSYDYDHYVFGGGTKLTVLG has a documented koff of 0.00094 s⁻¹

In plain terms, MS-GPC-8-27 Fab (Fab, V domains shown, Fab: VH-CH1 with FLAG tag and STREP tag II, VL-CL; VH residue 1 is Q in Fab) VH: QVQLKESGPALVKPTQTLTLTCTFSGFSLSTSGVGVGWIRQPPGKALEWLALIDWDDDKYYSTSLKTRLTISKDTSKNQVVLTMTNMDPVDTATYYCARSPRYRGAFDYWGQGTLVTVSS VL: DIVLTQPPSVSGAPGQRVTISCSGSSSNIGSNYVSWYQQLPGTAPKLLIYDNNQRPSGVPDRFSGSKSGTSASLAITGLQSEDEADYYCQSYDMNVHVFGGGTKLTVLG has a documented koff of 0.0066 s⁻¹

In plain terms, MS-GPC-8-6-47 Fab (Fab, V domains shown, Fab: VH-CH1 with FLAG tag and STREP tag II, VL-CL; VH residue 1 is Q in Fab) VH: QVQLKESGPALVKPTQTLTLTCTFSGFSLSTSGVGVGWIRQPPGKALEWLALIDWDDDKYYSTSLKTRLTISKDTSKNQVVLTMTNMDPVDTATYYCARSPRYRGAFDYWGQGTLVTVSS VL: DIVLTQPPSVSGAPGQRVTISCSGSESNIGSNYVSWYQQLPGTAPKLLIYDNNQRPSGVPDRFSGSKSGTSASLAITGLQSEDEADYYCQSYDYDHYVFGGGTKLTVLG has a documented koff of 0.00062 s⁻¹

In plain terms, MS-GPC-8 Fab (Fab, V domains shown, Fab from pMx9_Fab: VH-CH1 with FLAG tag and STREP tag II, VL-CL; VH residue 1 is Q in Fab; also called B8-Fab; B8) VH: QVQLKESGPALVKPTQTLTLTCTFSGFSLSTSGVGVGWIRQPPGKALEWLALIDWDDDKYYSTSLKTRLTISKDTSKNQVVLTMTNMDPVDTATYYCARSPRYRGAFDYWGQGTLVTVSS VL: DIVLTQPPSVSGAPGQRVTISCSGSSSNIGSNYVSWYQQLPGTAPKLLIYDNNQRPSGVPDRFSGSKSGTSASLAITGLQSEDEADYYCQSYDMPQAVFGGGTKLTVLG has a documented koff of 0.029 s⁻¹

In plain terms, MS-GPC-8-6 Fab (Fab, V domains shown, Fab: VH-CH1 with FLAG tag and STREP tag II, VL-CL; VH residue 1 is Q in Fab) VH: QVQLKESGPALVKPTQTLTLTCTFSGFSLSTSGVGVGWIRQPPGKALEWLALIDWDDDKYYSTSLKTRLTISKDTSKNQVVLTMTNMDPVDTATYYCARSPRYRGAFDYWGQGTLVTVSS VL: DIVLTQPPSVSGAPGQRVTISCSGSSSNIGSNYVSWYQQLPGTAPKLLIYDNNQRPSGVPDRFSGSKSGTSASLAITGLQSEDEADYYCQSYDYDHYVFGGGTKLTVLG has a documented koff of 0.00548 s⁻¹

In plain terms, MS-GPC-8-6-27 Fab (Fab, V domains shown, Fab: VH-CH1 with FLAG tag and STREP tag II, VL-CL; VH residue 1 is Q in Fab) VH: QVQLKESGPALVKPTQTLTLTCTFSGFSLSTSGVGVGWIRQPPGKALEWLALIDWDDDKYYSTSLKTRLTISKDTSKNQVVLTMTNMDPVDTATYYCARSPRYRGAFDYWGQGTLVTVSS VL: DIVLTQPPSVSGAPGQRVTISCSGSDSNIGANYVTWYQQLPGTAPKLLIYDNNQRPSGVPDRFSGSKSGTSASLAITGLQSEDEADYYCQSYDYDHYVFGGGTKLTVLG has a documented koff of 0.0011 s⁻¹
